Taken from ChEMBL document CHEMBL1130337.

Measured pIC50, listed per entry.
Target: Glutamate receptor ionotropic, AMPA (Rattus norvegicus, UniProt P19490+P19491+P19492+P19493)
Test: Inhibitory concentration against radioligand [3H]AMPA binding to Ionotropic glutamate receptor AMPA in rat forebrain membranes
pIC50: −log10 of the molar value.

{"Compound": "N[C@@]1(C(=O)O)CC[C@H]2[C@H](C(=O)O)[C@H]21 (stereo in doubt; (-)-9)", "pIC50": "< 4.00"}
{"Compound": "N[C@]1(C(=O)O)CC[C@H]2[C@H](C(=O)O)[C@H]21 (racemic)", "pIC50": "< 4.00"}

----------
Test: Inhibitory concentration against ACPD-sensitive radioligand [3H]glutamate binding to Group II Metabotropic glutamate receptor in rat forebrain membranes
Format: cell membranes, Membrane
pIC50: −log10 of the molar value.
Measured quantity: pIC50

{"Compound": "N[C@@]1(C(=O)O)CC[C@H]2[C@H](C(=O)O)[C@H]21 (stereo in doubt; (+)-9)", "Limit qualifier": "=", "Measurement": 6.74}
{"Compound": "N[C@H](C(=O)O)[C@H]1C[C@@H]1C(=O)O", "Limit qualifier": "=", "Measurement": 6.34}
{"Compound": "N[C@@]1(C(=O)O)CC[C@H]2[C@H](C(=O)O)[C@H]21 (racemic)", "Limit qualifier": "=", "Measurement": 6.50}
{"Compound": "N[C@]1(C(=O)O)CC[C@H]2[C@H](C(=O)O)[C@H]21 (racemic)", "Limit qualifier": "<", "Measurement": 4.00}
{"Compound": "N[C@@]1(C(=O)O)CC[C@H]2[C@H](C(=O)O)[C@H]21 (stereo in doubt; (-)-9)", "Limit qualifier": "<", "Measurement": 4.00}
